- System: HCT-116 colon
- EXPERIMENT SUMMARY: NCI tumour cell line growth inhibition, 48 h
// TGI lookup, one value per entry

[
  {
    "COMPOUND": "COC(=O)CCC(NC(=S)N/N=C(\\C)c1cccs1)C(=O)OC (stereo unspecified)",
    "TGI": "> 100 µM"
  },
  {
    "COMPOUND": "CN1CCC(O)(OC(=O)C(c2ccccc2)C2(O)CCCC2)CC1 (stereo unspecified)",
    "TGI": "> 100 µM"
  },
  {
    "COMPOUND": "COc1ccc(Cn2c(=O)c(OS(=O)(=O)C(F)(F)F)c(C)c3cc4ccccc4cc32)cc1",
    "TGI": "> 100 µM"
  },
  {
    "COMPOUND": "COC(=O)C1=C(O)c2cc(OC)c(OC)c(OC)c2C(c2ccc3c(c2)OCO3)[C@@H]1C(=O)OC (stereo partly specified)",
    "TGI": "> 100 µM"
  },
  {
    "COMPOUND": "CCOC(=N)CC(=O)Nc1ccccc1CC",
    "TGI": "> 100 µM"
  },
  {
    "COMPOUND": "COc1ccc(-c2cn3ccnc3c(-c3ccc(Cl)cc3)n2)cc1",
    "TGI": "> 100 µM"
  }
]

----------
- Test system: U251 CNS
- EXPERIMENT SUMMARY: NCI tumour cell line growth inhibition, 48 h
Collected TGI values appear next to each entry.

[
  {
    "MOLECULE": "C/C(N=NS(=O)(=O)c1c(C)cc(C)cc1C)=C1\\C=CC=CN1O",
    "TGI": "> 100 µM"
  },
  {
    "MOLECULE": "Cc1noc(-c2ccc(C(=O)O)[nH]2)c1Br",
    "TGI": "> 100 µM"
  },
  {
    "MOLECULE": "O=C(O)CCN1C(=S)CSC1=S",
    "TGI": "> 100 µM"
  },
  {
    "MOLECULE": "CCOC(=O)C(Cc1cc(OC)c(CC(C(=O)OCC)C(=O)OCC)cc1OC)C(=O)OCC",
    "TGI": "> 100 µM"
  },
  {
    "MOLECULE": "c1ccc(N2CCN(CCN3CCc4c([nH]c5ccccc45)C3c3cccnc3)CC2)cc1 (configuration not stated)",
    "TGI": "> 100 µM"
  },
  {
    "MOLECULE": "CC(C)C(Br)C(=O)NCC(=O)O (configuration not stated)",
    "TGI": "> 100 µM"
  },
  {
    "MOLECULE": "CCOC1=C/C(=N\\Nc2ccc([N+](=O)[O-])cc2)CCC1",
    "TGI": "54.1 µM"
  },
  {
    "MOLECULE": "CN1Cc2ccccc2C2(COc3ccccc3C2=O)C1 (configuration not stated)",
    "TGI": "> 100 µM"
  },
  {
    "MOLECULE": "C[C@]12CCC3c4ccc(O)cc4CCC3C1CC[C@@H]2NC(=O)/C=C/c1ccc(O)c(O)c1 (some centres not stated)",
    "TGI": "21.1 µM"
  },
  {
    "MOLECULE": "CCCCC[C@H]1C/C=C2/C(=O)C=C[C@@H]2C/C=C\\CCCC(=O)O1",
    "TGI": "0.305 µM"
  },
  {
    "MOLECULE": "COc1ccc(N=c2nc3sc4cc(Cl)ccc4n3c(N)c2C#N)cc1",
    "TGI": "> 100 µM"
  },
  {
    "MOLECULE": "CSCCC(NC(=O)C(Cc1c[nH]c2ccccc12)NC(=O)CCNC(=O)OC(C)(C)C)C(=O)NC(CC(=O)O)C(=O)NC(Cc1ccccc1)C(N)=O (configuration not stated)",
    "TGI": "> 50 µM"
  },
  {
    "MOLECULE": "CCN(CC)c1ccc(/C=N/N=C(N)N)cc1",
    "TGI": "23.4 µM"
  },
  {
    "MOLECULE": "O=C(CCC(NC(=O)OCc1ccccc1)C(=O)OCc1ccccc1)Nc1cccc(OCc2ccccc2)c1 (configuration not stated)",
    "TGI": "> 100 µM"
  },
  {
    "MOLECULE": "O=C(C#Cc1ccccc1)NC/C=C/c1ccccc1",
    "TGI": "> 100 µM"
  },
  {
    "MOLECULE": "O=C(O)C1CC2C=CCC(C2)C1 (configuration not stated)",
    "TGI": "> 100 µM"
  },
  {
    "MOLECULE": "COC(OC)c1cccnc1C",
    "TGI": "> 100 µM"
  }
]
